Consider the following binders; for each one, report its koff.
assayed_system: T1, human α-CGRP 1-37 (WT) (human, C-terminal amide; N-terminal biotin when captured on the SA chip; 125I-labelled in the radioligand assay)
T1 construct: also called α-human
T1 peptide: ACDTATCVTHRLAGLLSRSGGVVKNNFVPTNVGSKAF
protocol_description: Biacore, 37°C, Fab over CGRP on SA chip
Give your result in s⁻¹ as a bare value.

What the record says about G1 variant M47 Fab (Fab, V domains shown, Fab; constant domains as m1) VH: EVQLVESGGGLVQPGGSLRLSCAASGFTFSNYWISWVRQAPGKGLEWVAEIRSKSDNGATHYAEAVKGRFTISRDNAKNSLYLQMNSLRAEDTAVYYCTVYFDYGLAIQNYWGQGTLVTVSS VL: EIVLTQSPATLSLSPGERATLSCKASKNVTTYVSWYQQKPGQAPRLLIYAASNRYTGIPARFSGSGSGTDFTLTISSLEPEDFAVYYCSQSYNYPYTFGQGTKLEIK : koff is 0.000332

// koff lookup, binder = G1 variant M13 Fab (Fab, V domains shown, Fab; constant domains as m1) VH: EVQLVESGGGLVQPGGSLRLSCAASGFTFSNYWISWVRQAPGKGLEWVAEIRSESDASATHYAEAVKGRFTISRDNAKNSLYLQMNSLRAEDTAVYYCTGYFDYGLAIQNYWGQGTLVTVSS VL: EIVLTQSPATLSLSPGERATLSCKASKRVTTYVSWYQQKPGQAPRLLIYGASNRYLGIPARFSGSGSGTDFTLTISSLEPEDFAVYYCSQSYNYPYTFGQGTKLEIK , result: 0.000186

Form field koff, entry G1 variant M30 Fab (Fab, V domains shown, Fab; constant domains as m1) VH: EVQLVESGGGLVQPGGSLRLSCAASGFTFSNYWISWVRQAPGKGLEWVAEIRSKSDESATHYAEAVKGRFTISRDNAKNSLYLQMNSLRAEDTAVYYCTVYFDYGLAIQNYWGQGTLVTVSS VL: EIVLTQSPATLSLSPGERATLSCKASKNVGTYVSWYQQKPGQAPRLLIYGASNRYLGIPARFSGSGSGTDFTLTISSLEPEDFAVYYCSQSYNYPYTFGQGTKLEIK : 0.00059
